System: rodent lifetime carcinogenesis bioassay, tumor incidence TD50
assay-name: carcinogenic potency in animals, long-term in vivo studies, CPDB compilation (AID 1745844)
assay-context: rat; strain Fischer 344; females; in drinking water; site: upper gastrointestinal tract; lesion: several types; types named in the paper; dosed 100 weeks; study length 128 weeks
observation-type: TD50

IN: For the compound `O=NN1CC=CCC1` , what TD50 is on record?
OUT: 0.0374 mg/kg/day

###

System: rodent lifetime carcinogenesis bioassay, tumor incidence TD50
assay-name: carcinogenic potency in animals, long-term in vivo studies, CPDB compilation (AID 1745844)
assay-context: rat; strain Wistar; males; in feed; site: esophagus; lesion: squamous-cell papilloma; dosed 90 weeks; study length 102 weeks
observation-type: TD50

IN: Reported TD50, compound O=P(O)(OCC(Br)CBr)OCC(Br)CBr (stereo unspecified) : ____
OUT: 62.1 mg/kg/day

###

Tested on: rodent lifetime carcinogenesis bioassay, tumor incidence TD50
assay-name: carcinogenic potency in animals, long-term in vivo studies, CPDB compilation (AID 1745844)
assay-context: mouse; strain CDF1; males; in feed; site: forestomach; lesion: squamous-cell carcinoma; dosed 96 weeks; study length 96 weeks
observation-type: TD50 (mg/kg/day)
Give your result in mg/kg/day as a bare value.

IN: Reported TD50 for `Cn1c(N)nc2c3cccnc3ccc21` : what is it?
OUT: 153

###

Tested on: rodent lifetime carcinogenesis bioassay, tumor incidence TD50
assay-name: carcinogenic potency in animals, long-term in vivo studies, CPDB compilation (AID 1745844)
assay-context: rat; strain Fischer 344; males; by gavage; site: subcutaneous tissue; lesion: fibrosarcoma + fibroma + neurofibrosarcoma + sarcoma, NOS; dosed 103 weeks; study length 105 weeks
observation-type: TD50 (mg/kg/day)
# unit: mg/kg/day | format: bare number

IN: # get_value(readout= TD50, system= rodent lifetime carcinogenesis bioassay, tumor incidence TD50) for `Nc1cc([N+](=O)[O-])ccc1O`
OUT: 458

###

Test system: rodent lifetime carcinogenesis bioassay, tumor incidence TD50
assay-name: carcinogenic potency in animals, long-term in vivo studies, CPDB compilation (AID 1745844)
assay-context: monkey; strain Rhesus [Macaca mulatta]; both sexes; in feed; site: any site (literature study); lesion: malignant tumor; dosed 928 weeks; study length 1139 weeks
observation-type: TD50
Please state the number and follow it with the unit.

IN: State its TD50 on rodent lifetime carcinogenesis bioassay, tumor incidence TD50: `CN(N=O)C(N)=O`
OUT: 6.75 mg/kg/day

###

Tested on: rodent lifetime carcinogenesis bioassay, tumor incidence TD50
assay-name: carcinogenic potency in animals, long-term in vivo studies, CPDB compilation (AID 1745844)
assay-context: mouse; strain B6C3F1; females; in feed; site: liver; lesion: hepatocellular carcinoma; dosed 102 weeks; study length 102 weeks
observation-type: TD50

IN: Provide value of TD50 for this record tested with rodent lifetime carcinogenesis bioassay, tumor incidence TD50: `Cc1ccccc1N`
OUT: 1520 mg/kg/day

###

We begin with a simple list: items and their reported TD50.
System: rodent lifetime carcinogenesis bioassay, tumor incidence TD50
assay-name: carcinogenic potency in animals, long-term in vivo studies, CPDB compilation (AID 1745844)
assay-context: rat; strain Fischer 344; females; in feed; site: any site (literature study); lesion: several types; types named in the paper; dosed 78 weeks; study length 106 weeks
Lab book: enter the figure in mg/kg/day, no units written.

compound-structure-string	val
[O-]/[N+](=N\O)c1ccccc1	11.2

IN: Item: `c1ccc(NNc2ccccc2)cc1` Test system: rodent lifetime carcinogenesis bioassay, tumor incidence TD50 Read-out: TD50 Value: ?
OUT: 4.5

###

Tested on: rodent lifetime carcinogenesis bioassay, tumor incidence TD50
assay-name: carcinogenic potency in animals, long-term in vivo studies, CPDB compilation (AID 1745844)
assay-context: mouse; strain B6C3F1; males; inhaled; site: liver; lesion: hepatocellular adenoma + hepatoblastoma + hepatocellular carcinoma; dosed 95 weeks; study length 95 weeks
observation-type: TD50 (mg/kg/day)
Give just the numeric value; mg/kg/day need not be written.

IN: Request: TD50, test system rodent lifetime carcinogenesis bioassay, tumor incidence TD50, entry `FC(F)=C(F)F`
OUT: 91

###

Tested on: rodent lifetime carcinogenesis bioassay, tumor incidence TD50
assay-name: carcinogenic potency in animals, long-term in vivo studies, CPDB compilation (AID 1745844)
assay-context: rat; strain Fischer 344; males; by gavage; site: all sites; lesion: monocytic leukemia + malignant lymphoma, histiocytic type; dosed 103 weeks; study length 106 weeks
observation-type: TD50

IN: What measured TD50 goes with `C=CCOC(=O)CC(C)C` ?
OUT: 123 mg/kg/day

###

System: rodent lifetime carcinogenesis bioassay, tumor incidence TD50
assay-name: carcinogenic potency in animals, long-term in vivo studies, CPDB compilation (AID 1745844)
assay-context: mouse; strain ICR; males; in feed; site: kidney; lesion: several types; types named in the paper; dosed 80 weeks; study length 80 weeks
observation-type: TD50

IN: Any idea what TD50 was measured for `[CH3][Hg][Cl]` ?
OUT: 1.36 mg/kg/day

###

Tested on: rodent lifetime carcinogenesis bioassay, tumor incidence TD50
assay-name: carcinogenic potency in animals, long-term in vivo studies, CPDB compilation (AID 1745844)
assay-context: rat; strain Fischer 344; males; in drinking water; site: any site (literature study); lesion: several types; types named in the paper; dosed 100 weeks; study length 130 weeks
observation-type: TD50
Answer with the number, then the unit.

IN: I am curious: what TD50 value has been reported for `C=COC(C)=O` ?
OUT: 57.7 mg/kg/day

###

Tested on: rodent lifetime carcinogenesis bioassay, tumor incidence TD50
assay-name: carcinogenic potency in animals, long-term in vivo studies, CPDB compilation (AID 1745844)
assay-context: rat; strain Osborne-Mendel; females; in feed; site: uterus; lesion: adenocarcinoma + sarcoma; dosed 80 weeks; study length 109 weeks
Activity calls are given as the source filed them. The rule behind the calls is not given here.
observation-type: TD50

IN: # lookup: TD50 of ClC1=C(Cl)C2(Cl)C3C(Cl)C(Cl)CC3C1(Cl)C2(Cl)Cl (stereo unspecified)
OUT: 101 mg/kg/day (inactive)

###

Test system: rodent lifetime carcinogenesis bioassay, tumor incidence TD50
assay-name: carcinogenic potency in animals, long-term in vivo studies, CPDB compilation (AID 1745844)
assay-context: rat; strain Sprague-Dawley albino; females; in feed; site: mammary gland; lesion: fibroadenoma; dosed 46 weeks; study length 68 weeks
observation-type: TD50

IN: # get_value(readout= TD50, system= rodent lifetime carcinogenesis bioassay, tumor incidence TD50) for `O=[N+]([O-])c1ccc(-c2cscn2)o1`
OUT: 15.6 mg/kg/day

###

Tested on: rodent lifetime carcinogenesis bioassay, tumor incidence TD50
assay-name: carcinogenic potency in animals, long-term in vivo studies, CPDB compilation (AID 1745844)
assay-context: mouse; strain B6C3F1; females; in feed; site: any site (literature study); lesion: one or several types; types not named; dosed 96 weeks; study length 96 weeks
observation-type: TD50 (mg/kg/day)
Field format: number, assumed mg/kg/day, no unit text.

IN: Tell me the measured TD50 of `O=C(O)C=Cc1ccc(O)c(O)c1` , please.
OUT: 1900

###

Test system: rodent lifetime carcinogenesis bioassay, tumor incidence TD50
assay-name: carcinogenic potency in animals, long-term in vivo studies, CPDB compilation (AID 1745844)
assay-context: mouse; strain Charles River CD1; males; inhaled; site: any site (literature study); lesion: several types; types named in the paper; dosed 104 weeks; study length 105 weeks
observation-type: TD50 (mg/kg/day)
Note: unit mg/kg/day is implicit; provide only the numeric part.

IN: What value of TD50 has been recorded for this entry: `C=Cc1ccccc1`
OUT: 209

###

System: rodent lifetime carcinogenesis bioassay, tumor incidence TD50
assay-name: carcinogenic potency in animals, long-term in vivo studies, CPDB compilation (AID 1745844)
assay-context: mouse; strain ICRC x C3H (Jax); females; by gavage; site: lung; lesion: adenocarcinoma; dosed 73 weeks; study length 73 weeks
observation-type: TD50

IN: Checklist item: TD50 tested on rodent lifetime carcinogenesis bioassay, tumor incidence TD50, entry `O=S(=O)(O)O` , value?
OUT: 10.3 mg/kg/day

###

Tested on: rodent lifetime carcinogenesis bioassay, tumor incidence TD50
assay-name: carcinogenic potency in animals, long-term in vivo studies, CPDB compilation (AID 1745844)
assay-context: mouse; strain Charles River CD1; males; inhaled; site: Harderian gland; lesion: adenoma; dosed 63 weeks; study length 78 weeks
observation-type: TD50

IN: Entry `C=CF` : reported TD50 = ?
OUT: 1000 mg/kg/day

###

Tested on: rodent lifetime carcinogenesis bioassay, tumor incidence TD50
assay-name: carcinogenic potency in animals, long-term in vivo studies, CPDB compilation (AID 1745844)
assay-context: rat; strain Fischer 344; males; by gavage; site: splenic red pulp; lesion: sarcoma, NOS; dosed 103 weeks; study length 104 weeks
observation-type: TD50 (mg/kg/day)
Kindly answer with a numeric value in mg/kg/day, unit omitted.

IN: // lookup TD50 for `CN(C)c1ccccc1`
OUT: 175

###

Tested on: rodent lifetime carcinogenesis bioassay, tumor incidence TD50
assay-name: carcinogenic potency in animals, long-term in vivo studies, CPDB compilation (AID 1745844)
assay-context: rat; strain F344/DuCrj; males; in feed; site: any site (literature study); lesion: several types; types named in the paper; dosed 106 weeks; study length 106 weeks
The source made the active and inactive calls. How the calls were made is not given here.
observation-type: TD50

IN: Which TD50 value belongs to `CCN(CC)c1ccc2c(-c3ccc(S(=O)(=O)O)cc3S(=O)(=O)[O-])c3ccc(=[N+](CC)CC)cc-3oc2c1` ?
OUT: 2350 mg/kg/day (inactive)
